System: parental HEK cells
Procedure summary: HEK parental Agonist Counterscreen Assay (non-transfected cells)
Assay type: cell-based
Details: HEK Agonist Activity
Measurement name: Lipophilic Efficiency (logD)

O=C(CSc1ccc(Cl)cc1)NNC(=O)c1ccc(O)cc1 ... 2.34

a: CCCCn1c(C)c(N(CC)C(=O)C(C)(C)Oc2ccc(C)cc2)c(=O)[nH]c1=O
b: CC1(c2ccc3ccccc3c2)NC(=O)N(CC(=O)Nc2ccccc2Cl)C1=O (stereo not drawn)
Data request: Pick one, a or b : lowest reported Lipophilic Efficiency (logD). Provide the label of your selected option as the answer.
Data returned: b
(b: 1.21, a: 2.01)

a: CCOc1ccc(C(=O)NCCn2ccc3ccccc32)cc1OCC
b: CC1(c2ccc(Cl)cc2)NC(=O)N(CC(=O)NCc2cccs2)C1=O (stereo not drawn)
Data request: Could you tell me which of these two has the smaller Lipophilic Efficiency (logD) figure? First: a Second: b Your answer should be the label attached to the chosen record.
Data returned: a
(a: 1.28, b: 2.55)

a: Cc1cc(C(=O)NNC(=O)CNC(=O)Cc2cccc3ccccc23)c(C)o1
b: Cc1ccc(C)c(C(=O)CCC(=O)NNC(=O)CSc2nc3ccccc3o2)c1
c: Cc1ccccc1CN1CCN(CC(=O)NCCc2ccc(Cl)cc2)C1=O
Data request: Form: Sort by [Lipophilic Efficiency (logD)] Order [ ascending ] A ranking is expressed here by listing the labels in the requested order.
Data returned: b, c, a
(b: 1.04, c: 1.85, a: 3.34)

I: COc1ccc(OC)c(NC(=O)NNC(=O)C(C)Oc2ccc(Cl)cc2Cl)c1 (stereo not drawn)
II: CC(C(=O)NCCc1ccc(Cl)cc1)n1ncn2cccc2c1=O (stereo not drawn)
Data request: I need your help: which of the pair I , II has higher Lipophilic Efficiency (logD)? Record your answer as the label of the chosen record.
Data returned: II
(II: 2.84, I: 1.62)

----------
Experimental target: UniProtKB Q6DWJ6
Procedure summary: GPR139 Agonist titration / agonist counterscreen assay (calcium detection, HEK-GPR139 cells)
Assay type: cell-based
Design: expressed in transfected cells; host or cells: HEK Aequorin cells, Maxcyte transient transfection
Details: GPR139 Agonist Activity; values printed in E-notation without unit; read-out: EC50
Measurement name: EC50 (nM)

I: CC(C)(C)OC(=O)NNC(=O)COCc1ccc(Cl)c(Cl)c1 [SR-01000074687]
II: Cc1ccc(SCC(=O)Nc2nnc(-c3ccccc3Cl)o2)cc1 [SR-01000021416]
Data request: Between I and II , whose recorded EC50 is greater? Select an item and report its label.
Data returned: I

1: Cc1ccccc1SCC(=O)NNC(=O)c1ccc(Br)s1 [SR-01000069352]
2: CC(C(=O)NCCC1=CCCCC1)n1c(=O)c2cccn2c2ccccc21 (centres unmarked) [SR-01000142419]
3: CCCc1cc(=O)n2[nH]c(NCc3ccccc3F)nc2n1 [SR-01000100493]
Data request: Rank by EC50 (largest to smallest). In your reply, arrange the labels in the requested order.
Data returned: 1, 3, 2

----------
Tested on: parental HEK cells
Procedure summary: HEK parental Agonist Counterscreen Assay (non-transfected cells)
Format: cell-based
Details: HEK Agonist Activity section
Measurement name: Lipophilic Efficiency (logD)

I: CC(C(=O)NCCn1nnn(-c2ccccc2)c1=O)n1nc2ccccc2n1 (stereo not shown) [SR-01000373848]
II: COc1ccc2c(c1)C[C@H](C(=O)Nc1ccc(-c3cn[nH]c3)cc1OCC1CNC1)NC2.O=C(O)C(F)(F)F.O=C(O)C(F)(F)F.O=C(O)C(F)(F)F [SR-00000006698]
III: O=C(CNC(=O)c1ccc(Br)o1)NC1CCCc2ccccc21 (stereo not shown) [SR-01000064101]
IV: O=C(CN1C(=O)OC(O)(c2ccc(Cl)cc2Cl)C1=O)Nc1ccccc1Cl (stereo not shown) [SR-01000062419]
Data request: Your job: order these 4 records by Lipophilic Efficiency (logD), ascending. In plain terms: list the labels in the order you were asked to.
Data returned: IV, I, III, II
(IV: 0.98, I: 1.47, III: 2.64, II: 6.10)

----------
Experimental target: GPR139 (Homo sapiens, UniProt Q6DWJ6)
Procedure summary: GPR139 Agonist titration / agonist counterscreen assay (calcium detection, HEK-GPR139 cells)
Assay type: cell-based
Parameters: expressed in transfected cells; host or cells: HEK Aequorin cells, Maxcyte transient transfection
Details: GPR139 Agonist Activity; based on logD
Measurement name: Lipophilic Efficiency (logD)

Previously resolved entries follow.
CC(NC(=O)c1ccc2c(c1)N(Cc1ccccc1)C(=O)C[S+]2[O-])c1ccccc1 (stereo not drawn) ... 3.96
CC(C)(C)CN1CCNC(=O)C1CC(=O)NCCc1cnn(-c2ccccc2)c1 (stereo not drawn) ... 5.92
O=C(CCc1nc2ccccc2n1-c1ccccc1)NCCc1ccccc1 ... 2.73
O=C(CC(C(=O)N1CCc2ccccc21)n1ccnc1)N1CCCCCC1 (stereo not drawn) ... 4.94
O=C(CN1CCN(Cc2ccc(F)cc2Cl)C1=O)NCc1ccccc1Cl ... 3.63

P: CCCCN(C)C(=O)CCC(=O)NNC1Cc2ccccc2C2=CC(C)=CC21 (stereo not drawn)
Q: Cc1ccc(SCC(=O)Nc2nnc(-c3ccc(Cl)cc3)o2)cc1
Data request: Quick check, higher Lipophilic Efficiency (logD) between P and Q ? # respond with the chosen item's label
Data returned: P

----------
Experimental target: GPR139 (Homo sapiens, UniProt Q6DWJ6)
Procedure summary: GPR139 Agonist titration / agonist counterscreen assay (calcium detection, HEK-GPR139 cells)
Assay type: cell-based
Parameters: expressed in transfected cells; host or cells: HEK Aequorin cells, Maxcyte transient transfection
Details: GPR139 Agonist Activity
Measurement name: Lipophilic Efficiency (logD)

CCOC(=O)C1CCN(C(=O)C2CC(Cc3cccc4ccccc34)=NO2)CC1 (stereo not drawn) ... 2.73
O=C(NCCn1ccc2ccccc21)c1cccc(Cl)c1 ... 2.55
Cc1ccc2c(c1)-c1c(cnn1CC(=O)Nc1ccc(F)cc1)CO2 ... 2.47
COc1cc(OC)cc(C(=O)NNC(=O)COc2cc(C)c(Cl)c(C)c2)c1 ... 2.95
CCOC(=O)c1ccc(NC(=O)Cn2c(C)c(C=O)c3ccccc32)cc1 ... 2.28
O=C(Cn1ncc2c1-c1ccccc1OC2)Nc1ccc(Cl)cc1 [SR-01000098980] ... 3.09
COc1cc(C(=O)NNC(=O)C(C)Oc2ccc(Cl)cc2Cl)cc(OC)c1OC (stereo not drawn) ... 3.44
Cc1c(Cl)c([N+](=O)[O-])nn1CC(=O)NC(C)COc1ccccc1 (stereo not drawn) ... 3.49
Cc1cc(C)c2c(cnn2CC(=O)N2CCc3ccccc3C2)c1 ... 2.91

----------
Experimental target: GPR139 (Homo sapiens, UniProt Q6DWJ6)
Sequence (Q6DWJ6 1-353): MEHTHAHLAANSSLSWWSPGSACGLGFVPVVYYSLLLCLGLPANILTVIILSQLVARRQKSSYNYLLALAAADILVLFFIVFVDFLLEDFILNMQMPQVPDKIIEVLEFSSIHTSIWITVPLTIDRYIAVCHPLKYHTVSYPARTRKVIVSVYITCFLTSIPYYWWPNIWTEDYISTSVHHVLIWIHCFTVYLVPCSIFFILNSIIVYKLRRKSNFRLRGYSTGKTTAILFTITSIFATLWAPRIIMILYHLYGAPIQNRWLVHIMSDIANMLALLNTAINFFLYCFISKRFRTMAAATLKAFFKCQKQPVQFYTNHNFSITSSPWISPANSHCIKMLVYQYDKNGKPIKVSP
Procedure summary: GPR139 Agonist titration / agonist counterscreen assay (calcium detection, HEK-GPR139 cells)
Assay type: cell-based
Parameters: expressed in transfected cells; host or cells: HEK Aequorin cells, Maxcyte transient transfection
Details: GPR139 Agonist Activity
Measurement name: Lipophilic Efficiency (logD)

CCc1c(C2C(C(=O)OCc3ccccc3)=C(C)CC3=C2C(=O)CCC3)ccc(OC)c1OC (stereo not shown) [SR-01000406098] ... 2.46
O=C(Cn1ncc2c1-c1ccccc1OC2)Nc1ccc(Cl)cc1 [SR-01000152099] ... 3.61
Cc1ccc(Nc2cn[nH]c(=S)n2)c(C)c1 [SR-01000013346] ... 3.66
Cc1c(Cl)c(C(F)(F)F)nn1CC(=O)NCc1ccc(Cl)cc1 [SR-01000429212] ... 1.94
Cc1c(C=O)c2ccccc2n1CC(=O)NCc1ccccc1 [SR-01000269911] ... 3.22
O=C(NCCS(=O)(=O)N1CCc2ccccc2C1)C(c1ccccc1)c1ccccc1 [SR-01000911742] ... 2.28

1: Cc1ccc(CNc2nc3ccccc3n2CCN2CCOCC2)cc1 [SR-01000364205]
2: COC(=O)c1ccc(CSc2nnc(N)s2)cc1 [SR-01000031964]
Data request: Which record shows the lower Lipophilic Efficiency (logD): the first, 1 , or the second, 2 ? Your answer should be the label attached to the chosen record.
Data returned: 1

A: C#CC1=C(CCCc2ccc(CC)cc2)CC(CCc2ccccc2CC)=C1 [SR-01000363853]
B: CCOC(=O)N1CCC2=C(CC(NC(=O)Cc3cccc4ccccc34)=C2C(C)=O)C1 [SR-01000011241]
C: COc1ccc(CCN2CC3=C(C2=O)C(c2ccc(F)c(F)c2)NC(=O)N3)cc1 (stereo not shown) [SR-01000335002]
Data request: // ascending sort on recorded Lipophilic Efficiency (logD) Hello, could you send the labels back in the order asked? Thank you.
Data returned: B, A, C
